Reference source: PubChem BioAssay (NCI)

I'd appreciate it if you could supply growth inhibition values for the items below.
experiment: NCI Yeast Anticancer Drug Screen. Data for the sgs1 mgt1 strain (AID 161);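 further: 0% = growth of cultures given vehicle only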; conditions: S. cerevisiae sgs1 mgt1 strain, at 50.0 µM, stronger effect = higher value
The panel holds about 79,000 compounds, 15% with a hit somewhere; the sample as a whole holds those more often.
Answer with a number only, understood to be in %.

Answer with reported growth inhibition of C1CCC(C2CCC(N3CCCCC3)CC2)CC1 (stereo unspecified)
82.3

Answer with reported growth inhibition of O=Cc1cc2ccccc2cc1C=O
87.2

Answer with reported growth inhibition of CO/N=C/c1ccc([N+](=O)[O-])s1
33.8

Answer with reported growth inhibition of CCN=C(N)Nc1nc(-c2ccc(Cl)cc2)cs1
91.8

Answer with reported growth inhibition of COc1ccc2c(c1)C(O)=C(CC=C(C)C)C(=O)C2=O
20.2

Answer with reported growth inhibition of C=C(CN(C)C)C(=O)c1ccc(C)cc1C
99.4

Answer with reported growth inhibition of C=CCNC(=S)N/N=C/c1nccc(-c2ccccc2)c1C
82

Answer with reported growth inhibition of CCCC/C=C(/CCCNCCCC)[Si](C)(C)C
94.2

Answer with reported growth inhibition of CC(NNC(=S)N1CCCC1)c1cccnn1 (stereo unspecified)
88.6

Answer with reported growth inhibition of CC1=CC(C2/C(=N/O)C=C(C)CC2(C)C)C(O)C(C)(C)C1 (stereo unspecified)
98.8

Answer with reported growth inhibition of Cc1cc(NS(=O)(=O)c2ccc(NCc3c4ccccc4nc4cc(Cl)ccc34)cc2)no1
98.5
